target: ProLink tagged human CXCR4 (C2C12 CXCR4 β-Arrestin cell line) (human, UniProt P61073 1-352); test: cell-based or functional assay
Sequence (P61073 whole entry): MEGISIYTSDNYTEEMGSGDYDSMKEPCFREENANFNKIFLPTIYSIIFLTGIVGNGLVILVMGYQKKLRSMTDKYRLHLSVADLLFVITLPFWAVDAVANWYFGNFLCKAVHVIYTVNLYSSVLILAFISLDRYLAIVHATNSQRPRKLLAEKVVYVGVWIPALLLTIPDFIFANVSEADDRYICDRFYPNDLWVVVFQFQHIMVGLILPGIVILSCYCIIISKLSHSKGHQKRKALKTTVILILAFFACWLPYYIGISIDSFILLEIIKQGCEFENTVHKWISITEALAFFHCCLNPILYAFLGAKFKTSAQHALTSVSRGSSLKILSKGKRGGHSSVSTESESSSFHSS
Ends that are not written are not given here.
Listed below: IC50 for Inhibition of CXCR4 Activation (β-Arrestin recruitment) values for each entry.
Return type: number; implicit unit nM.

Challenge: Dear colleague, please send me the reported IC50 for Inhibition of CXCR4 Activation (β-Arrestin recruitment) for LERYHHSVRSSLRPYTK-NH2 [SEQ ID NO: 56] when you can.
Response given: 11

Challenge: Dear colleague, please send me the reported IC50 for Inhibition of CXCR4 Activation (β-Arrestin recruitment) for LERYHHSVRSSLRPYTK [SEQ ID NO: 4] when you can.
Response given: 4

Challenge: Dear colleague, please send me the reported IC50 for Inhibition of CXCR4 Activation (β-Arrestin recruitment) for LRRYHHSVRSSLRPYTK-NH2 [SEQ ID NO: 16] when you can.
Response given: 8

Challenge: Dear colleague, please send me the reported IC50 for Inhibition of CXCR4 Activation (β-Arrestin recruitment) for LRRYHHSVRSSLRPYTK [SEQ ID NO: 3] when you can.
Response given: 5

src = patent US20220395553A1
